Biological target: IKZF2 (Helios) (Homo sapiens, UniProt Q96SW2+Q9UKS7)
Sequence (Q9UKS7 whole entry): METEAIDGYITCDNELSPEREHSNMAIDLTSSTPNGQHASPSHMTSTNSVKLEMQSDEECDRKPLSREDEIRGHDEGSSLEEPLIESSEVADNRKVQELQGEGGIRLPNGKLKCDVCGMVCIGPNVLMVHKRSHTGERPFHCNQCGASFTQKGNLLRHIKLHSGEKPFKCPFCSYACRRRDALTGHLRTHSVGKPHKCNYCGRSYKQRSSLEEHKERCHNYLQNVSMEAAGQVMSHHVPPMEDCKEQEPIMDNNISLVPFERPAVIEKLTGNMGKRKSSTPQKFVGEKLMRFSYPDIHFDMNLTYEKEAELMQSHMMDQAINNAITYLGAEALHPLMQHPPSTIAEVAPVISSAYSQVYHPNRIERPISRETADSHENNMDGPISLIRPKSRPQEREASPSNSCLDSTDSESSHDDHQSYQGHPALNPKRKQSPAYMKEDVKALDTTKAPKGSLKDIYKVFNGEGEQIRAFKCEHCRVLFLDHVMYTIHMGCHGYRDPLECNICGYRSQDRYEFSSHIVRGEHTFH
Sequence (Q96SW2 whole entry): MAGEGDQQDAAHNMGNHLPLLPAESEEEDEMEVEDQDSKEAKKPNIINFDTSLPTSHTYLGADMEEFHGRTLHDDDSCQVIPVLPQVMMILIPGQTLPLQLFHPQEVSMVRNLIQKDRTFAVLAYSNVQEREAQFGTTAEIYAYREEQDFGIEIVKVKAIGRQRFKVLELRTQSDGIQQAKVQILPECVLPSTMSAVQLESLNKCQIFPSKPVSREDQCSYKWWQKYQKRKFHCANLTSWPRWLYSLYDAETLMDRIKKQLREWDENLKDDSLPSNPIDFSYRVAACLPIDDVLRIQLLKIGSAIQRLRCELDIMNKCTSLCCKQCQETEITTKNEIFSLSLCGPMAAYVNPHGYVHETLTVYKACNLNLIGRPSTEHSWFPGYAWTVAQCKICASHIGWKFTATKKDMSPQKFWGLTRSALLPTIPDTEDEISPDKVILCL
Sequence (Q16531 whole entry partner): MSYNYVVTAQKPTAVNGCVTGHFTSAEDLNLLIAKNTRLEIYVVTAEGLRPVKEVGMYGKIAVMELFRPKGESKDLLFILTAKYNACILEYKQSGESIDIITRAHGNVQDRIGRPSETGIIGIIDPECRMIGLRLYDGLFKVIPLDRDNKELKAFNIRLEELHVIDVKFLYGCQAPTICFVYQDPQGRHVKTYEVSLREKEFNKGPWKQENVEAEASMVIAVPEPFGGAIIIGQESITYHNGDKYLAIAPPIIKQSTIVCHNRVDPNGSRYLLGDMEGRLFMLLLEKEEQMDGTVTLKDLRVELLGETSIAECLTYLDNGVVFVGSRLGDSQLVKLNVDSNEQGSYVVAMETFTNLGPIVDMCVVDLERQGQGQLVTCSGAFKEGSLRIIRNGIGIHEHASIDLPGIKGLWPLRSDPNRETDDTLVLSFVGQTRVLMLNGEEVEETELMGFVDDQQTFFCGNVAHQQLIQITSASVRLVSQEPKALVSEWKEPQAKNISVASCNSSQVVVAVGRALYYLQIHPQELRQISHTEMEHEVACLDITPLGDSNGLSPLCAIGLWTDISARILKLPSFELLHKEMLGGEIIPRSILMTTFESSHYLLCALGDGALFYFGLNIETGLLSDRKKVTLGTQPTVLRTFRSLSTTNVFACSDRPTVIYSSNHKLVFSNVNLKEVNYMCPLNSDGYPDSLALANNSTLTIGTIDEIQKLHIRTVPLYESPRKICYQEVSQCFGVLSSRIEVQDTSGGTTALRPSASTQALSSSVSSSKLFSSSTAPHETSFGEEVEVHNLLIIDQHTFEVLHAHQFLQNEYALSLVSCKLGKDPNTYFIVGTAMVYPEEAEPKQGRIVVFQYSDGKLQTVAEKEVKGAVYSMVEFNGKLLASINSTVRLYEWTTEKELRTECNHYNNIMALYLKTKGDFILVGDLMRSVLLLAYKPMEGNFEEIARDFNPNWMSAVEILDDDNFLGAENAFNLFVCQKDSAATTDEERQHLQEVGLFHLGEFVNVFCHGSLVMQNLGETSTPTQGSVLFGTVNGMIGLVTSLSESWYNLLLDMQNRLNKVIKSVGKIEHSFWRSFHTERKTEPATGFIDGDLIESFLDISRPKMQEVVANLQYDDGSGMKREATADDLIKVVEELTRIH
Test: Prolabel quantification of IKZF2 protein levels in 293GT cells
Type: cell-based
Conditions: 10 μM, 24 h, 293GT cells
observed-property: IKZF2 % protein reduction at 10 μM, 24 h (%)
Numbers only, in %.

The cases that follow already have their IKZF2 % protein reduction at 10 μM, 24 h on record.
- CCOc1ccc(CN2CCC(c3ccc4c(c3)CN(C3CCC(=O)NC3=O)C4=O)CC2)cn1 (centres unmarked) [Compound I-8]: 70
- COC1CCC(N2CCC(c3ccc4c(c3)CN(C3CCC(=O)NC3=O)C4=O)CC2)CC1 (centres unmarked) [Compound I-36]: 74

Return reported IKZF2 % protein reduction at 10 μM, 24 h values for all items listed beneath this line.
1. Cc1ncc(CN2CCC(c3ccc4c(c3)CN(C3CCC(=O)NC3=O)C4=O)CC2)cn1 (centres unmarked) [Compound I-17]
2. O=C1CCC(N2Cc3cc(C4CCN(CCn5cccn5)CC4)ccc3C2=O)C(=O)N1 (centres unmarked) [Compound I-11]
3. CC(C1CCOCC1)N1CCC(c2ccc3c(c2)CN(C2CCC(=O)NC2=O)C3=O)CC1 (centres unmarked) [Compound I-30]

(A)
[50, 60, 80]
